target: CDK4/Cyclin D1 (Homo sapiens, UniProt P11802); assay: NanoBRET live-cell target engagement, NanoLuc-CDK4/Cyclin D1 in HEK-293; format: binding; details: CDK4/D1; 10µM; read-out: Inhibition at 10µM (%) Replicate 1
Sequence (P11802 whole entry): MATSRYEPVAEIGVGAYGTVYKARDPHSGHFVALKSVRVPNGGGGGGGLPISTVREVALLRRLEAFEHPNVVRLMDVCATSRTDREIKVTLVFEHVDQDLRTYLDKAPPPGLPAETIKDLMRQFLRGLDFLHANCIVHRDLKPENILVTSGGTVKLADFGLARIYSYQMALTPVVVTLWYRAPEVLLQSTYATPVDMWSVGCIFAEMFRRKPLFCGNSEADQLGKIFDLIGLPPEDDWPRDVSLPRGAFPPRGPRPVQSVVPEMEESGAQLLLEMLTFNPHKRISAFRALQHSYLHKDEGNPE
Sequence (P24385 whole entry partner): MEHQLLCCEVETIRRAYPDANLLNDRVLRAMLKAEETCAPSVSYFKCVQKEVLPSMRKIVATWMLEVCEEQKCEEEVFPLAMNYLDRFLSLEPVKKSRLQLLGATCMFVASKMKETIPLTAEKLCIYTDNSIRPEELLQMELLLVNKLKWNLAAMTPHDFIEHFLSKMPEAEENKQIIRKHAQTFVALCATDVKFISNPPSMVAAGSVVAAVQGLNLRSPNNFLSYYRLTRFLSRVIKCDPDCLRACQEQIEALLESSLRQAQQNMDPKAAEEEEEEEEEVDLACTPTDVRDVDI
measurementName: inhibition at 10 µM

// worked examples, inhibition at 10 µM included
Ask: Entry CCCCOc1c(C(=O)c2c(F)cc(C)cc2F)c[nH]c2nncc1-2 needs its inhibition at 10 µM filled in; supply it.
Result: 49%

Ask: Entry Cc1ncc(-c2ccnc(Nc3ccc(S(C)(=O)=O)cc3)n2)n1C(C)C needs its inhibition at 10 µM filled in; supply it.
Result: 88.9%

Ask: Entry CCN1CCN(Cc2ccc(NC(=O)Nc3ccc(Oc4cc(NC)ncn4)cc3)cc2C(F)(F)F)CC1 needs its inhibition at 10 µM filled in; supply it.
Result: 55.7%

Ask: Entry CC(C)c1cnn2c(NCc3ccccc3)cc(NCCCCCCN)nc12 needs its inhibition at 10 µM filled in; supply it.
Result: 30.9%

Ask: Entry COc1cc(F)ccc1-c1cc(Nc2cc(CS(C)(=N)=O)ccn2)ncc1F (centres unmarked) needs its inhibition at 10 µM filled in; supply it.
Result: 75.9%

Next:
Ask: Entry C[C@H]1CC[C@H](n2c3cnccc3c3cnc(Nc4ccc5c(n4)CCN(C(=O)CO)C5)nc32)CC1 needs its inhibition at 10 µM filled in; supply it.
Result: 97.7%

Ask: Entry CCN1CCN(Cc2ccc(Nc3ncc(F)c(-c4cc(F)c5nc(C)n(C(C)C)c5c4)n3)nc2)CC1 needs its inhibition at 10 µM filled in; supply it.
Result: 100%

Ask: Entry COc1cc(F)ccc1-c1ncnc(Nc2cccc(C[S@](C)(=N)=O)c2)n1 needs its inhibition at 10 µM filled in; supply it.
Result: 53.7%
